Target: Glycine receptor (Rattus norvegicus, UniProt P22771+P24524+P07727+P20781); also: in other assays of this panel Not Active means under 50% inhibition at 10 µM
Type: cell membranes, Wistar, Spinal cord, Membrane
endpoint: IC50

| molecule | assay-system | reading |
| --- | --- | --- |
| Cc1cccc(Nc2ccncc2S(=O)(=O)NC(=O)NC(C)C)c1 [TORSEMIDE] | Glycine receptor (Rattus norvegicus, UniProt P22771+P24524+P07727+P20781) | Not Active |
| CNC(=C[N+](=O)[O-])NCCSCc1ccc(CN(C)C)o1 | Glycine receptor (Rattus norvegicus, UniProt P22771+P24524+P07727+P20781) | Not Active |
| C=CCN1CC[C@]23c4c5ccc(O)c4O[C@H]2C(=O)CC[C@@]3(O)[C@H]1C5 | Glycine receptor (Rattus norvegicus, UniProt P22771+P24524+P07727+P20781) | Not Active |
| NC(=O)NO [HYDROXYUREA] | Glycine receptor (Rattus norvegicus, UniProt P22771+P24524+P07727+P20781) | Not Active |
| CC1(C)O[C@@H]2C[C@H]3[C@@H]4C[C@H](F)C5=CC(=O)CC[C@]5(C)[C@H]4[C@@H](O)C[C@]3(C)[C@]2(C(=O)CO)O1 [FLURANDRENOLIDE] | Glycine receptor (Rattus norvegicus, UniProt P22771+P24524+P07727+P20781) | Not Active |
| COc1cc2c(c(OC)c1OC)-c1ccc(OC)c(=O)cc1[C@@H](NC(C)=O)CC2 | Glycine receptor (Rattus norvegicus, UniProt P22771+P24524+P07727+P20781) | Not Active |
| C[C@@]12C(=O)OC(=O)[C@]1(C)[C@H]1CC[C@@H]2O1 | Glycine receptor (Rattus norvegicus, UniProt P22771+P24524+P07727+P20781) | Not Active |
| CCCC(=O)Nc1ccc(OCC(O)CNC(C)C)c(C(C)=O)c1 (stereo not drawn) | Glycine receptor (Rattus norvegicus, UniProt P22771+P24524+P07727+P20781) | Not Active |
| Clc1ccc2c(c1)C(N1CCNCC1)=Nc1ccccc1O2 | Glycine receptor (Rattus norvegicus, UniProt P22771+P24524+P07727+P20781) | Not Active |
| C[C@]1(Cn2ccnn2)[C@H](C(=O)O)N2C(=O)C[C@H]2S1(=O)=O | Glycine receptor (Rattus norvegicus, UniProt P22771+P24524+P07727+P20781) | Not Active |
| CC(C)(C)c1ccc(C(O)CCCN2CCC(C(O)(c3ccccc3)c3ccccc3)CC2)cc1 (stereo not drawn) | Glycine receptor (Rattus norvegicus, UniProt P22771+P24524+P07727+P20781) | Not Active |
| CC(=O)Nc1c(I)c(NC(C)=O)c(I)c(C(=O)O)c1I | Glycine receptor (Rattus norvegicus, UniProt P22771+P24524+P07727+P20781) | Not Active |
| COc1ccccc1C(=O)N1CCC(Cc2ccccc2)CC1 | Glycine receptor (Rattus norvegicus, UniProt P22771+P24524+P07727+P20781) | Not Active |
| CC(=O)Nc1ccc(O)cc1 | Glycine receptor (Rattus norvegicus, UniProt P22771+P24524+P07727+P20781) | Not Active |
| C#C[C@]1(O)CC[C@H]2[C@@H]3CCc4cc(OC)ccc4[C@H]3CC[C@@]21C | Glycine receptor (Rattus norvegicus, UniProt P22771+P24524+P07727+P20781) | Not Active |
| C[C@@H]1C[C@@H]([C@H](O)CC2CC(=O)NC(=O)C2)C(=O)[C@@H](C)C1 [CYCLOHEXIMIDE] | Glycine receptor (Rattus norvegicus, UniProt P22771+P24524+P07727+P20781) | Not Active |
| CC(=O)CC(c1ccccc1)c1c(O)c2ccccc2oc1=O (stereo not drawn) | Glycine receptor (Rattus norvegicus, UniProt P22771+P24524+P07727+P20781) | Not Active |
| N=C(Nc1ccccc1)Nc1ccccc1 | Glycine receptor (Rattus norvegicus, UniProt P22771+P24524+P07727+P20781) | Not Active |
